Tested on: PC-3
Assay: Antiproliferative activity against human PC3 cells after 24 hrs by CCK-8 assay
Format: functional, cell-based
Settings: PC-3, 24 h
property-label: pIC50
Note on pIC50: it is the negative log10 of concentration, concentration in mol/L.

Past entries and their recorded results:
[Q] Name the recorded pIC50 for Cc1ccc(OCCc2ccc(CN3CCN(c4ccccc4)CC3)cc2)cc1 .
[A] 5.83

[Q] Name the recorded pIC50 for c1ccc(N2CCN(Cc3ccc(CCOc4cccc5c4CCCC5)cc3)CC2)cc1 .
[A] 4.75

[Q] Name the recorded pIC50 for FC(F)(F)c1ccc(OCCc2ccc(CN3CCN(c4ccccc4)CC3)cc2)cc1 .
[A] 5.30

# input for lookup
[Q] Name the recorded pIC50 for c1ccc(OCCc2ccc(CN3CCN(c4ccccc4)CC3)cc2)cc1 .
[A] 5.09

---

Tested on: PC-3
Assay: Antiproliferative activity against human PC3 cells after 24 hrs by CCK-8 assay
Type: functional, cell-based
Settings: PC-3, 24 h
Below, each entry is listed with its recorded pIC50.
Note on pIC50: it is the negative log10 of concentration, concentration in mol/L.

Past entries and their recorded results:
[Q] Give the reported pIC50 for Fc1ccc(OCCc2ccc(CN3CCN(c4ccccc4)CC3)cc2)cc1 (system: PC-3).
[A] 5.24

[Q] Give the reported pIC50 for Clc1ccc(OCCc2ccc(CN3CCN(c4ccccc4)CC3)cc2)cc1 (system: PC-3).
[A] 5.44

[Q] Give the reported pIC50 for Clc1cc(Cl)cc(OCCc2ccc(CN3CCN(c4ccccc4)CC3)cc2)c1 (system: PC-3).
[A] 5.00

[Q] Give the reported pIC50 for Cc1ccc(OCCc2ccc(CN3CCN(c4ccccc4)CC3)cc2)cc1C (system: PC-3).
[A] 5.17

[Q] Give the reported pIC50 for Cc1ccccc1OCCc1ccc(CN2CCN(c3ccccc3)CC2)cc1 (system: PC-3).
[A] 4.82

More entries:
[Q] Give the reported pIC50 for N#Cc1ccc(OCCc2ccc(CN3CCN(c4ccccc4)CC3)cc2)cc1 (system: PC-3).
[A] 5.98

[Q] Give the reported pIC50 for Fc1ccccc1OCCc1ccc(CN2CCN(c3ccccc3)CC2)cc1 (system: PC-3).
[A] 4.31

---

Target: Androgen receptor (Homo sapiens) (UniProt P10275)
Sequence (P10275 whole entry): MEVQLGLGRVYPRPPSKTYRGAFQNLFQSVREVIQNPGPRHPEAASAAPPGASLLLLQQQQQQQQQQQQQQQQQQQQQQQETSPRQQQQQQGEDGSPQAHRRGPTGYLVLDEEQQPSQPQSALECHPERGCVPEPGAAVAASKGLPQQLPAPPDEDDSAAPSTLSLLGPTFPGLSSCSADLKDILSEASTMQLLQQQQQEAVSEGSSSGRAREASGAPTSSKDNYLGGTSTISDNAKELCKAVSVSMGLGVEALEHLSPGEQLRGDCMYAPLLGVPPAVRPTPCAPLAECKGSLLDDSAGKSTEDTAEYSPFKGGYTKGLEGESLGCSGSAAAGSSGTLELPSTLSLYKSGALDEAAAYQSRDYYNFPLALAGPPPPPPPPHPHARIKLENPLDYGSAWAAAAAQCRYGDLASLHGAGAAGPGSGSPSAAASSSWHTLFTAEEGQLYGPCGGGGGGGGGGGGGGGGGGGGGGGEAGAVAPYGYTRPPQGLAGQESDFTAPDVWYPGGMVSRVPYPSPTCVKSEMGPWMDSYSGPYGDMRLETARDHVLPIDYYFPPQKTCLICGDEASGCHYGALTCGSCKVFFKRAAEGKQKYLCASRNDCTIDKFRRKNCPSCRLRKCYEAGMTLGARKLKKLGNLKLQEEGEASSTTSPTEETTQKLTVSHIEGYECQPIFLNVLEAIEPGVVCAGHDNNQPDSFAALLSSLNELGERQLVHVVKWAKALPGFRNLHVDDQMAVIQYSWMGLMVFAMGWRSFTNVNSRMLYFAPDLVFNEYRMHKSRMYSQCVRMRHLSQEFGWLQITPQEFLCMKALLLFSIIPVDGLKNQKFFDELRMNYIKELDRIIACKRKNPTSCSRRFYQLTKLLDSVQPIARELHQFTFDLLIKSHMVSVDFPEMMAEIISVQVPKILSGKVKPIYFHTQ
Details: at 10 µM
Description: Antagonist activity at alpha1 androgen receptor (unknown origin) assessed as reduction in R1881-induced response at 10 uM by dual-luciferase reporter gene assay relative to control
Below, each entry is listed with its recorded inhibition.
# output: bare number, implied unit %

Past entries and their recorded results:
[Q] Give the reported inhibition for N#Cc1ccc(OCCc2ccc(CN3CCN(c4ccccc4)CC3)cc2)c(F)c1 (system: Androgen receptor (Homo sapiens) (UniProt P10275)).
[A] 24.5

[Q] Give the reported inhibition for Cc1ccc(OCCc2ccc(CN3CCN(c4ccccc4)CC3)cc2)cc1 (system: Androgen receptor (Homo sapiens) (UniProt P10275)).
[A] 54.7

[Q] Give the reported inhibition for COc1ccc(OCCc2ccc(CN3CCN(c4ccccc4)CC3)cc2)cc1 (system: Androgen receptor (Homo sapiens) (UniProt P10275)).
[A] 67.1

[Q] Give the reported inhibition for Fc1ccc(OCCc2ccc(CN3CCN(c4ccccc4)CC3)cc2)cc1 (system: Androgen receptor (Homo sapiens) (UniProt P10275)).
[A] 35.1

# input for lookup
[Q] Give the reported inhibition for c1ccc(OCCc2ccc(CN3CCN(c4ccccc4)CC3)cc2)cc1 (system: Androgen receptor (Homo sapiens) (UniProt P10275)).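 Also: Antagonist-mode dual-luciferase reporter gene assay measuring the decrease in R1881-stimulated receptor signal, compared with control.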
[A] 40.6

Sourced from ChEMBL document CHEMBL4308898
